The reported numbers originate from PubChem BioAssay.

measurement-target: Follistatin (Homo sapiens)
procedure-text: follistatin binders on small-molecule microarrays, primary screen, biochemical, small-molecule microarray, 635/667 nm fluorescence (AID 1132)
assay-context: FST binding, 635 nm fluorescence, higher = more signal
readout-label: composite z-score
One number for each entry.

Answer for every listed entry: what is its composite z-score? The entries follow.
1. O=C1O[C@@H](c2ccccc2)[C@@H](c2ccccc2)N2[C@@H](c3ccccc3OCCO)[C@]3(C(=O)Nc4ccccc43)[C@@H](C(=O)Nc3nc4ccccc4s3)[C@H]12
2. C=CC[C@@]1(C(=O)NCCN2CCOCC2)N=C(c2ccc(OCCCO)cc2)O[C@@H]1c1ccccc1N=[N+]=[N-]

1: 0.778; 2: 1.36

Per the records, this compound ( CCOC(=O)C[C@H]1[C@H](OC(=O)c2ccc(C(=O)c3ccccc3)cc2)[C@@H](NC(=O)c2ccccc2)c2cc(OCCCO)ccc2N1C(=O)Cc1ccc(OC)cc1 ) has composite z-score equal to 0.0257

---

procedure-text: Plasmodium falciparum growth inhibition, primary screen, strain 3D7, DAPI fluorescence, 100 nL (AID 1184);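 further: parasites grown inside human red blood cells in medium with human serum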
assay-context: P. falciparum 3D7 growth, 3 d, higher = more signal
readout-label: z-score
One number for each entry.

| compound | readout-label | endpoint-result |
| --- | --- | --- |
| C=CCOC(=O)[C@H]1[C@@H]2C(=O)O[C@@H](c3ccccc3)[C@@H](c3ccccc3)N2[C@@H](c2ccc(OCCOC(=O)[C@H]3C[C@H]4C(=O)N[C@@H](CCCC[N+](C)(C)C)C(=O)N4[C@H]3c3ccc(O)cc3)cc2)[C@]12C(=O)Nc1ccc(I)cc12 | z-score | 0.615 |
| C=CCOC(=O)[C@@H]1[C@H]2C(=O)O[C@H](c3ccccc3)[C@H](c3ccccc3)N2[C@H](c2ccc(OCCOC(=O)[C@H]3C[C@H]4C(=O)N5CCC[C@H]5C(=O)N4[C@H]3c3ccc(O)cc3)cc2)[C@@]12C(=O)Nc1ccc(I)cc12 | z-score | -1.56 |
| CC(C)[Si](C#Cc1ccc(Oc2ccccc2)cc1)(O[Si](C#Cc1ccc(Oc2ccccc2)cc1)(C(C)C)C(C)C)C(C)C | z-score | -1.37 |
| CN1C(=O)C2C=CC(C(O)c3ccc([N+](=O)[O-])cc3)N(N3CCCCC3)C2C1=O (centres undefined) | z-score | -0.114 |
| NC(=O)[C@@H]1[C@H]2C(=O)O[C@H](c3ccccc3)[C@H](c3ccccc3)N2[C@H](c2ccc(O)cc2)[C@@]12C(=O)Nc1ccccc12 | z-score | -1.28 |

Answer for every listed entry: what is its z-score? The entries follow.
1. COc1cc2c(cc1O)C(c1cccs1)N(C)CC2 (centres undefined)
2. CO[C@H]1O[C@H](CO)[C@@H](OC(=O)Nc2ccc(Oc3ccccc3)cc2)[C@H](OC(=O)Nc2ccc3c(c2)OCO3)[C@H]1OC(=O)Nc1ccc2c(c1)OCO2
3. CC(C)[Si]1(C(C)C)O[C@@H](c2ccccc2)c2cc(-c3ccc(-c4ccc(Cl)c(Cl)c4)o3)nc(-c3ccccc3)c21
4. COC(=O)[C@@]1(Cc2ccc(F)cc2)[C@H]2c3cc(C(=O)N4CCCC4)n(CCCNc4ncc(C(F)(F)F)cc4Cl)c3C[C@H]2CN1C(=O)c1ccccc1

-1.12
-2.33
0.283
-1.41

Answer for every listed entry: what is its z-score? The entries follow.
1. COC(=O)[C@@]1(CCC(=O)OC(C)(C)C)N=C(c2ccc(OCCCO)cc2)O[C@H]1c1ccccc1N=[N+]=[N-]
2. CC(C)C[C@@H]1NC(=O)[C@H](C(C)C)NC(=O)[C@@]23C(=O)N[C@@H](Cc4ccccc4)C2[C@H](C)[C@@]2(C)O[C@H]2C3/C=C/CC/C=C/CNC1=O (some centres undefined)
3. C=C[C@@H](COC(=O)OC(C)(C)C)N(Cc1ccc(OC)cc1)S(=O)(=O)c1ccc(Br)cc1
4. O=C1[C@@]23C=C(Br)[C@H](C[C@@H]2CCOC3)[C@@]12CO2

1: -2.33; 2: -1.4; 3: 0.605; 4: 1.37

Per the records, this compound ( CCCC[C@@H]1C[C@H]1[C@@H](NC(=O)c1ccco1)c1ccccc1C(F)(F)F ) has z-score equal to -0.7
